Listing: EC50 of selected molecules
# testTarget: IDO1 (Homo sapiens, UniProt P14902)
# Sequence (P14902 whole entry): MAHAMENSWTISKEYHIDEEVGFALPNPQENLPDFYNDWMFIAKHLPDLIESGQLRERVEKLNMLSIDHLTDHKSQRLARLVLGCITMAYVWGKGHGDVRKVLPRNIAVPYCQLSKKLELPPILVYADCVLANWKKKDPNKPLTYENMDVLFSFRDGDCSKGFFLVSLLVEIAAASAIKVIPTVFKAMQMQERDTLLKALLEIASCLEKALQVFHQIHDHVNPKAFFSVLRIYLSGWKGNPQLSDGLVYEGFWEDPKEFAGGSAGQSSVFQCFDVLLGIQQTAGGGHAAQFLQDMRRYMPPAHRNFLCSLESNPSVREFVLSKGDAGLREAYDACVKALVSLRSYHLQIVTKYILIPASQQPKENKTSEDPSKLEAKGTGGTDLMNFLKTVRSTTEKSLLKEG
# assayDetails: Hela cell-based IDO1 assay
# runParameters: Hela cells
Write down the numeric answer in nM and omit the unit.

Worked examples follow.
molecule	observationType	uom	reportedResult
COc1ccc(C2CCC(C(O)c3c(C4CC4)ccc4cncn34)CC2)c2ccccc12 (stereo not shown) [Example D139]	EC50	nM	977
CC(=O)Nc1ccc([C@H]2CC[C@H]([C@H](O)c3c(C4CC4)ccc4cncn34)CC2)cc1 [Example D159]	EC50	nM	80
O[C@H](c1c(C2CC2)ccn2cncc12)[C@H]1CC[C@H](c2ccc(OC3COC3)cc2)CC1 (single isomer, unassigned) [Example C117a]	EC50	nM	131

Q. Name the recorded EC50 for O[C@H](c1c(C2CC2)ccc2cncn12)[C@H]1CC[C@H](c2ccccc2)CC1 (single isomer, unassigned) [Example D101a] .
A. 35

Q. Name the recorded EC50 for OC(c1c(C2CC2)ccc2cncn12)C1CCC(c2ccc(OC3COC3)cc2)CC1 (stereo not shown) [Example D109] .
A. 206

Q. Name the recorded EC50 for OC(c1c(C2CC2)ccn2cncc12)C1CCC(c2ccnc3ccc(F)cc23)CC1 (stereo not shown) [Example C128] .
A. 51

Q. Name the recorded EC50 for COc1ccccc1C1CCC(C(O)c2c(C3CC3)ccn3cncc23)CC1 (stereo not shown) [Example C113] .
A. 149

Q. Name the recorded EC50 for COc1cccc([C@H]2CC[C@H]([C@H](O)c3c(C4CC4)ccn4cncc34)CC2)c1 (single isomer, unassigned) [Example C114a] .
A. 180

----------
# testTarget: UniProtKB P14902
# assayDetails: IDO1 enzymatic assay
# Assay type: biochemical
# Set-up: His tag (N); made in house; host or cells: E. coli
# runParameters: read-out: Enzyme IC50 IDO1
observationType: pIC50
In textbook form, pIC50 equals minus log to base ten of the concentration in mol/L.

molecule	pIC50
O[C@H](c1c(C2CC2)ccc2cncn12)[C@H]1CC[C@H](c2ccnc3ccc(F)cc32)CC1 (single isomer, unassigned) [Example D150a]	7.80

Q. Name the recorded pIC50 for O[C@H](c1c(C2CC2)ccc2cncn12)C1CCN(c2ccc(F)c3ncccc23)CC1 (single isomer, unassigned) [Example D175a] .
A. 7.92

Q. Name the recorded pIC50 for O[C@H](c1c(C2CC2)ccc2cncn12)C1CCN(c2ccc(F)cc2)CC1 (single isomer, unassigned) [Example D171a] .
A. 7.82

Q. Name the recorded pIC50 for OCCn1cc(-c2ccc(N3CCC(C(O)c4c(C5CC5)ccc5cncn45)CC3)cc2)cn1 (centres unmarked) [Example D177] .
A. 7.60

----------
# testTarget: UniProt P14902
# assayDetails: Hela cell-based IDO1 assay
# runParameters: Hela cells
Listing: pEC50 of selected compounds
In textbook form, pEC50 equals minus log to base ten of the concentration in mol/L.

Worked examples follow.
compound	testTarget	pEC50
OC(c1c(C2CC2)ccc2cncn12)C1CCC(c2ccc(F)c3ccccc23)CC1 (stereo not shown)	UniProt P14902	7.01
O[C@H](c1c(C2CC2)ccn2cncc12)[C@H]1CC[C@H](c2ccc(C(F)(F)F)nc2)CC1 (single isomer, unassigned) [Example C120a]	UniProt P14902	5.96
CC(C)c1ccc2cncn2c1[C@H](O)[C@H]1CC[C@H](c2ccc(Cl)cc2)CC1 (single isomer, unassigned) [Example D115b]	UniProt P14902	5.25
O[C@@H](c1c(C2CC2)ccc2cncn12)[C@H]1CC[C@H](c2ccc(F)c(F)c2F)CC1 (single isomer, unassigned) [Example D145b]	UniProt P14902	5.02
O[C@H](c1c(C2CC2)ccc2cncn12)[C@H]1CC[C@H](c2ccc(F)c(F)c2F)CC1 (single isomer, unassigned) [Example D145a]	UniProt P14902	6.56

Q. Name the recorded pEC50 for O[C@H](c1c(C2CC2)ccc2cncn12)C1CCN(c2ccc(F)cc2)CC1 (single isomer, unassigned) [Example D171a] .
A. 7.52

Q. Name the recorded pEC50 for N#Cc1ccc(N2CCC(C(O)c3c(C4CC4)ccn4cncc34)CC2)cc1 (single isomer, unassigned) [Example C144a] .
A. 6.32

Q. Name the recorded pEC50 for OC(c1c(C2CC2)ccc2cncn12)C1CCC(c2cccc3ccccc23)CC1 (stereo not shown) .
A. 7.49

Q. Name the recorded pEC50 for O[C@H](c1c(C2CC2)ccc2cncn12)C1CCN(c2ccc(Cl)c3ncccc23)CC1 (single isomer, unassigned) [Example D178a] .
A. 8.01

Q. Name the recorded pEC50 for O[C@@H](c1c(C2CC2)ccc2cncn12)[C@H]1CC[C@H](c2cccc3ccccc32)CC1 (single isomer, unassigned) [Example D135b] .
A. 5.17

Q. Name the recorded pEC50 for OC(c1c(C2CC2)ccc2cncn12)[C@H]1CC[C@H](c2ccc(F)cc2Cl)CC1 (single isomer, unassigned) [Example D130b] .
A. 5.03

----------
# testTarget: IDO1 (Homo sapiens)
# assayDetails: Hela cell-based IDO1 assay
# runParameters: Hela cells
observationType: log10(EC50) (log10 of the value in µM)
Log10 applied to EC50; unit prior to transform: µM.

Worked examples follow.
compound	log10(EC50)
O[C@H](c1c(C2CC2)ccc2cncn12)C1CCN(c2cccc(Cl)c2)CC1 (single isomer, unassigned) [Example D173a]	-1.48
OC(c1c(C2CC2)ccc2cncn12)C1CCC(c2cccc3ncccc23)CC1 (stereo not drawn)	-1.68
OC(c1c(C2CC2)ccc2cncn12)C1CCC(c2cccc(Cl)c2)CC1 (stereo not drawn)	-0.97
COc1ccc(C2CCC(C(O)c3c(C4CC4)ccc4cncn34)CC2)c(F)c1 (stereo not drawn)	-0.68

Q. Name the recorded log10(EC50) for COc1ccc(N2CCC(C(O)c3c(C4CC4)ccn4cncc34)CC2)cc1 (stereo not drawn) .
A. -0.57

Q. Name the recorded log10(EC50) for O[C@@H](c1c(C2CC2)ccc2cncn12)C1CCN(c2cccc(F)c2)CC1 [Example D172b] .
A. 0.73

Q. Name the recorded log10(EC50) for Cc1ccc([C@H]2CC[C@H]([C@H](O)c3c(C4CC4)ccn4cncc34)CC2)cc1 (single isomer, unassigned) [Example C110a] .
A. -0.55

Q. Name the recorded log10(EC50) for Cn1cc(-c2ccc(N3CCC(C(O)c4c(C5CC5)ccc5cncn45)CC3)cc2)cn1 (stereo not drawn) .
A. -0.96

Q. Name the recorded log10(EC50) for COc1ccc([C@H]2CC[C@H](C(O)c3c(C4CC4)ccc4cncn34)CC2)c2ccccc12 (single isomer, unassigned) [Example D139a] .
A. -0.35

Q. Name the recorded log10(EC50) for OC(c1c(C2CC2)ccc2cncn12)C1CCN(c2cccc(Cl)c2)CC1 (stereo not drawn) .
A. -1.19

----------
Listing: pIC50 of selected compounds
# testTarget: UniProt:P14902
# assayDetails: IDO1 enzymatic assay
# Type: biochemical
# Design: His tag (N); made in house; host or cells: E. coli
# runParameters: read-out: Enzyme IC50 IDO1
In textbook form, pIC50 equals minus log to base ten of the concentration in mol/L.

Worked examples follow.
compound	testTarget	reportedResult
O[C@H](c1c(C2CC2)ccn2cncc12)[C@H]1CC[C@H](c2ccccc2F)CC1 (single isomer, unassigned) [Example C108a]	UniProt:P14902	7.55
OC(c1c(C2CC2)ccn2cncc12)C1CCN(c2ccccn2)CC1 (stereo not shown) [Example C146]	UniProt:P14902	7.33
Cc1ccccc1C1CCC(C(O)c2c(C3CC3)ccn3cncc23)CC1 (stereo not shown) [Example C112]	UniProt:P14902	7.04
OC(c1c(C2CC2)ccn2cncc12)C1CCC(c2cccc3ncccc23)CC1 (stereo not shown) [Example C126]	UniProt:P14902	7.54

Q. Name the recorded pIC50 for OC(c1c(C2CC2)ccc2cncn12)C1CCC(c2ccc(F)c(F)c2)CC1 (stereo not shown) [Example D126] .
A. 7.40

Q. Name the recorded pIC50 for OC(c1c(C2CC2)ccn2cncc12)C1CCN(c2ccc(Cl)c3ncccc23)CC1 (single isomer, unassigned) [Example C154b] .
A. 5.54

----------
# testTarget: IDO1 (Homo sapiens, UniProt P14902)
# assayDetails: IDO1 enzymatic assay
# Assay type: biochemical
# Set-up: His tag (N); made in house; host or cells: E. coli
# runParameters: read-out: Enzyme IC50 IDO1
observationType: IC50 (nM)
Write down the numeric answer in nM and omit the unit.

Q. Name the recorded IC50 for OC(c1c(C2CC2)ccc2cncn12)C1CCC(c2ccc(F)c(F)c2F)CC1 (stereo not shown) .
A. 54

Q. Name the recorded IC50 for OC(c1c(C2CC2)ccc2cncn12)C1CCC(c2ccc3sccc3c2)CC1 (stereo not shown) .
A. 44

Q. Name the recorded IC50 for O[C@@H](c1c(C2CC2)ccc2cncn12)[C@H]1CC[C@H](c2ccc(F)cc2F)CC1 (single isomer, unassigned) [Example D127b] .
A. 2700

Q. Name the recorded IC50 for O[C@@H](c1c(C2CC2)ccc2cncn12)[C@H]1CC[C@H](c2ccc(F)c(Cl)c2)CC1 (single isomer, unassigned) [Example D129b] .
A. 7670

Q. Name the recorded IC50 for N#Cc1ccc(C2CCC(C(O)c3c(C4CC4)ccc4cncn34)CC2)cc1 (stereo not shown) .
A. 40

Q. Name the recorded IC50 for OC(c1c(C2CC2)ccn2cncc12)C1CCC(c2ccccc2F)CC1 (racemic) .
A. 59

Q. Name the recorded IC50 for O[C@H](c1c(C2CC2)ccc2cncn12)[C@H]1CC[C@H](c2ccc(F)cc2)CC1 (single isomer, unassigned) [Example D104a] .
A. 18
